Assignment: determine reported MIC for the given compounds.
System: Pseudomonas aeruginosa
protocol description: Potentiation of aztreonam-induced antibacterial activity against carbapenem and colistin-resistant Pseudomonas aeruginosa 91433 clinical isolate assessed as aztreonam MIC at 8 uM by checkerboard assay (reference value: 16 ug/ml)
Type: functional
Answers are plain numbers, in µg/mL.

Example entries begin here.
{"columns": ["structure as smiles", "measured"],
 "data": [
  ["NC[C@H]1O[C@H](O[C@H]2[C@H](OCCCCc3cn(CCCCO[C@@H]4[C@@H](O)[C@H](N)C[C@H](N)[C@H]4O[C@H]4O[C@H](CN)[C@@H](O)C[C@H]4N)nn3)[C@@H](O)[C@H](N)C[C@@H]2N)[C@H](N)C[C@@H]1O.O=C(O)C(F)(F)F.O=C(O)C(F)(F)F.O=C(O)C(F)(F)F.O=C(O)C(F)(F)F.O=C(O)C(F)(F)F.O=C(O)C(F)(F)F.O=C(O)C(F)(F)F.O=C(O)C(F)(F)F", 2],
  ["N=C(N)NC[C@H]1O[C@H](O[C@H]2[C@H](OCCCCCCCCCCCCN3CCN(c4cc5c(cc4F)c(=O)c(C(=O)O)cn5C4CC4)CC3)[C@@H](O[C@H]3O[C@H](CO)[C@@H](O)[C@H](NC(=N)N)[C@H]3O)[C@H](NC(=N)N)C[C@@H]2NC(=N)N)[C@H](NC(=N)N)C[C@@H]1O.O=C(O)C(F)(F)F.O=C(O)C(F)(F)F.O=C(O)C(F)(F)F.O=C(O)C(F)(F)F.O=C(O)C(F)(F)F.O=C(O)C(F)(F)F", 16],
  ["Cl.Cl.Cl.Cl.Cl.Cl.NC[C@H]1O[C@H](O[C@H]2[C@H](OCCCCCCCCCCCCN3CCN(c4cc5c(cc4F)c(=O)c(C(=O)O)cn5C4CC4)CC3)[C@@H](O[C@H]3O[C@H](CO)[C@@H](O)[C@H](N)[C@H]3O)[C@H](N)C[C@@H]2N)[C@H](N)C[C@@H]1O", 4],
  ["Cl.Cl.Cl.Cl.Cl.NC[C@H]1O[C@H](O[C@H]2[C@H](OCCCCCCCCCCCCN3CCN(c4cc5c(cc4F)c(=O)c(C(=O)O)cn5C4CC4)CC3)[C@@H](O)[C@H](N)C[C@@H]2N)[C@H](N)C[C@@H]1O", 8]
]}

The compound listed as NC[C@H]1O[C@H](O[C@H]2[C@H](OCCCCCCCCN3CCCNCCNCCCNCC3)[C@@H](O)[C@H](N)C[C@@H]2N)[C@H](N)C[C@@H]1O.O=C(O)C(F)(F)F.O=C(O)C(F)(F)F.O=C(O)C(F)(F)F.O=C(O)C(F)(F)F.O=C(O)C(F)(F)F.O=C(O)C(F)(F)F.O=C(O)C(F)(F)F.O=C(O)C(F)(F)F has a reported MIC of 8
